- Tested on: UACC-257
- experimentSummary: NCI tumour cell line growth inhibition, 48 h
Calls of active or inactive are those of the source. Rule as the data show it: active = GI50 up to about 1.1 µM and inactive = higher.
Please respond with reported GI50 for every item in the list.

Worked set:
compound	endpointResult
COc1cc(C(=O)NO)ccc1O	> 100 µM (inactive)
O=C(Nc1cccc(C(F)(F)F)c1)c1cc(Br)cc(Br)c1O	2.52 µM (inactive)
COc1cc(-c2n[nH]cc2CCCC(=O)Nc2ccccc2[N+](=O)[O-])ccc1O	> 100 µM (inactive)
C/C(CC(=O)NC1=CC=C(NC(=O)C/C(C)=N\Nc2ccccc2)CC1)=N/Nc1ccccc1	> 100 µM (inactive)
O=[N+]([O-])/C(C(Cl)=C(Cl)Cl)=C(\Nc1ccccc1)n1nnc2ccccc21	> 100 µM (inactive)
CN(O)C(=O)CCC(NC(=O)CCC(N)C(=O)O)C(=O)NCC(=O)O (centres undefined)	> 100 µM (inactive)

Record GI50 for all entries; do not skip any.
1. CC1=NN(C(=O)CC(=O)Nc2ccc(C)cc2)C(=O)C1/N=N\c1ccc(S(=O)(=O)c2ccc(/N=N/C3C(=O)N(C(=O)CC(=O)Nc4ccc(C)cc4)N=C3C)cc2)cc1 (centres undefined)
2. CCc1nc(N)nc(N)c1-c1ccc(NCCc2ccccc2)c([N+](=O)[O-])c1
3. Cc1ccc(S(=O)(=O)OC2CS[S+]([O-])CC2OS(=O)(=O)c2ccc(C)cc2)cc1 (centres undefined)
4. C/C(=N\NC(=S)NCCNC(=S)N/N=C(\C)c1ccccn1)c1ccccn1

Result ::
["> 100 µM (inactive)", "1.77 µM (inactive)", "14.6 µM (inactive)", "2.61 µM (inactive)"]

Give GI50 for all compounds that follow.
1. Cc1ccccc1/N=N/c1ccc(/N=N/c2c(O)ccc3cc(S(=O)(=O)O)cc(S(=O)(=O)O)c23)c(C)c1
2. CSC(C1c2ccccc2N(c2ccc(C)cc2)C2=NC(=O)N(C)C(=O)C21Cl)S(=O)(=O)c1ccc(C)cc1 (centres undefined)
3. C/C=C\C(CC(=O)NCC(=O)c1c[nH]c2ccccc12)CC(=O)OC (centres undefined)
4. CN(C(=O)Cc1cccc(N=C=S)c1)[C@H]1CCCC[C@@H]1N1CCCC1
5. CCCCN1C(=O)N(c2ccc(OCC)cc2)C2N(CCCC)C1C(C)(C)C2(C)C (centres undefined)
6. N=c1oc2ccccc2cc1C(=O)Nc1cccc2ccccc12

Result ::
> 100 µM (inactive)
23.7 µM (inactive)
> 100 µM (inactive)
13.5 µM (inactive)
27.5 µM (inactive)
> 100 µM (inactive)

// for each compound below, give its GI50
1. Nc1nc(=O)n(C2CC(O)C(CO)O2)c2nc(-c3ccc(-c4ccccc4)cc3)cnc12 (centres undefined)
2. O=C1C(Cl)C2(CC(/C=C/c3ccccc3Cl)=NN2c2cccc(S(=O)(=O)O)c2)N1c1nc2ccccc2s1 (centres undefined)

Result ::
> 100 µM (inactive)
66.8 µM (inactive)

Query :: Record Fc1ccc(C2SCc3nc4ccccc4n32)cc1Cl (centres undefined) : what is its GI50 with UACC-257?
Result :: 22.8 µM (inactive)
